Give measured pKd for each item. Keep answers brief.
method summary: Binding affinity to Mycobacterium tuberculosis APS reductase
The scale used: pKd is minus the common logarithm of the concentration in molar units.

Task: For the compound shown here, `CC(=O)Nc1cc2c(cc1[N+](=O)[O-])-c1ccccc1C2=O` , give the reported pKd.
Output: 4.50

Task: For the compound shown here, `O=C(O)CCc1nnc2c3ccccc3c3ccccc3c2n1` , give the reported pKd.
Output: 4.33

Task: For the compound shown here, O=C(O)C[S+]([O-])c1ccc2c3c(cccc13)C(=O)c1ccccc1-2 (centres undefined) , give the reported pKd.
Output: 3.74

Task: For the compound shown here, `O=C1c2ccccc2-c2cc([N+](=O)[O-])c([N+](=O)[O-])cc21` , give the reported pKd.
Output: 4.43
